Value source: ChEMBL document CHEMBL3137667

Listed compounds paired with reported Hepatotoxicity (cirrhosis)
Conditions: human

| COMPOUND | Hepatotoxicity (cirrhosis) |
| --- | --- |
| Cc1cc(CC(=O)O)n(C)c1C(=O)c1ccc(Cl)cc1 [ZOMEPIRAC] | 0 |
| CC[C@H](c1ccc(O)cc1)[C@@H](CC)c1ccc(O)cc1 | 0 |
| CCc1oc2ccccc2c1C(=O)c1cc(I)c(O)c(I)c1 | 0 |
| O=c1[nH]c(=O)n([C@H]2C[C@H](O)[C@@H](CO)O2)cc1F | 4 |
| Cc1cn([C@H]2C=C[C@@H](CO)O2)c(=O)[nH]c1=O | 0 |

====

Listed compounds paired with reported Hepatotoxicity (acute)
Details: human, serum

| COMPOUND | Hepatotoxicity (acute) |
| --- | --- |
| O=C[C@H](O)[C@@H](O)[C@H](O)[C@H](O)CO[C@H]1O[C@H](CO[C@H]2O[C@H](CO)[C@@H](O)[C@H](O)[C@H]2O)[C@@H](O)[C@H](O)[C@H]1O [DEXTRAN] | 0 |
| CCCCC(C)(O)C/C=C/[C@H]1[C@H](O)CC(=O)[C@@H]1CCCCCCCO (stereo partly drawn) [RIOPROSTIL] | 0 |
| O=c1[nH]cc(F)c(=O)[nH]1 [FLUOROURACIL] | 4 |
| CCCCOCC(CN1C(=O)NC(=O)C(CC)(c2ccccc2)C1=O)OC(N)=O (stereo not drawn) [FEBARBAMATE] | 9 |
| COc1ccc2c(c1)c(CC(=O)OCC(=O)O)c(C)n2C(=O)c1ccc(Cl)cc1 [ACEMETACIN] | 1 |
| COc1ccc(Cl)cc1C(=O)NCCc1ccc(S(=O)(=O)NC(=O)NC2CCCCC2)cc1 [GLYBURIDE] | 14 |
| N[C@H](C(=O)O)[C@@H]1CC(Cl)=NO1 [ACIVICIN] | 0 |
| O=P1(NCCCl)OCCCN1CCCl (stereo not drawn) [IFOSFAMIDE] | 2 |

====

Listed molecules paired with reported Hepatotoxicity (cytolytic)
Settings: human

| MOLECULE | Hepatotoxicity (cytolytic) |
| --- | --- |
| OC[C@H]1O[C@@H](n2cnc3c2NC=NC[C@H]3O)C[C@@H]1O | 1 |
| COC(=O)C1=C(C)NC(C)=C(C(=O)OCCN(C)Cc2ccccc2)C1c1cccc([N+](=O)[O-])c1 (stereo not drawn) | 0 |
| [H]/N=C(\N/C(=N/[H])NCCCCCCNC(=N)NC(=N)Nc1ccc(Cl)cc1)Nc1ccc(Cl)cc1 | 0 |
| CC(C(=O)O)c1cccc(Oc2ccccc2)c1 (stereo not drawn) | 2 |
| CN1CCN2c3ccccc3Cc3ccccc3C2C1 (stereo not drawn) | 3 |
| O=c1cc[nH]c(=S)[nH]1 | 1 |
| COC(=O)[C@H]1[C@H]2C[C@@H]3c4[nH]c5cc(OC)ccc5c4CCN3C[C@H]2C[C@@H](OC(=O)c2cc(OC)c(OC)c(OC)c2)[C@@H]1OC | 0 |
| C[C@@H](O)[C@H]1C(=O)N2C(C(=O)O)=C(S[C@@H]3CN[C@H](C(=O)Nc4cccc(C(=O)O)c4)C3)[C@H](C)[C@H]12 | 0 |

====

Settings: human
Classification field: Y = Hepatotoxicity (cytolytic) at or over 3; N = Hepatotoxicity (cytolytic) under 3.

| COMPOUND | LABEL |
| --- | --- |
| CO[C@H]1C[C@H](O[C@H]2[C@H](C)[C@@H](O[C@@H]3O[C@H](C)C[C@H](N(C)C)[C@H]3OC(C)=O)[C@@H](C)C[C@@]3(CO3)C(=O)[C@H](C)[C@@H](OC(C)=O)[C@@H](C)[C@@H](C)OC(=O)[C@@H]2C)O[C@@H](C)[C@@H]1OC(C)=O | N |
| Nc1ccc(C(=O)O)c(O)c1 | Y |
| Cc1nccn1CC1CCc2c(c3ccccc3n2C)C1=O (configuration not stated) | N |
| CC1(C)S[C@@H]2[C@H](NC(=O)C(C(=O)O)c3ccccc3)C(=O)N2[C@H]1C(=O)O (some centres not stated) | Y |
| CCCCC(C)(C)[C@H](O)/C=C/[C@H]1[C@H](C)CC(=O)[C@@H]1C/C=C\CCCC(=O)O | N |
| C[C@H]1[C@H](NC(=O)/C(=N\OC(C)(C)C(=O)O)c2csc(N)n2)C(=O)N1S(=O)(=O)O | N |
